assay-target: UniProt:O00763
Sequence (O00763 whole entry): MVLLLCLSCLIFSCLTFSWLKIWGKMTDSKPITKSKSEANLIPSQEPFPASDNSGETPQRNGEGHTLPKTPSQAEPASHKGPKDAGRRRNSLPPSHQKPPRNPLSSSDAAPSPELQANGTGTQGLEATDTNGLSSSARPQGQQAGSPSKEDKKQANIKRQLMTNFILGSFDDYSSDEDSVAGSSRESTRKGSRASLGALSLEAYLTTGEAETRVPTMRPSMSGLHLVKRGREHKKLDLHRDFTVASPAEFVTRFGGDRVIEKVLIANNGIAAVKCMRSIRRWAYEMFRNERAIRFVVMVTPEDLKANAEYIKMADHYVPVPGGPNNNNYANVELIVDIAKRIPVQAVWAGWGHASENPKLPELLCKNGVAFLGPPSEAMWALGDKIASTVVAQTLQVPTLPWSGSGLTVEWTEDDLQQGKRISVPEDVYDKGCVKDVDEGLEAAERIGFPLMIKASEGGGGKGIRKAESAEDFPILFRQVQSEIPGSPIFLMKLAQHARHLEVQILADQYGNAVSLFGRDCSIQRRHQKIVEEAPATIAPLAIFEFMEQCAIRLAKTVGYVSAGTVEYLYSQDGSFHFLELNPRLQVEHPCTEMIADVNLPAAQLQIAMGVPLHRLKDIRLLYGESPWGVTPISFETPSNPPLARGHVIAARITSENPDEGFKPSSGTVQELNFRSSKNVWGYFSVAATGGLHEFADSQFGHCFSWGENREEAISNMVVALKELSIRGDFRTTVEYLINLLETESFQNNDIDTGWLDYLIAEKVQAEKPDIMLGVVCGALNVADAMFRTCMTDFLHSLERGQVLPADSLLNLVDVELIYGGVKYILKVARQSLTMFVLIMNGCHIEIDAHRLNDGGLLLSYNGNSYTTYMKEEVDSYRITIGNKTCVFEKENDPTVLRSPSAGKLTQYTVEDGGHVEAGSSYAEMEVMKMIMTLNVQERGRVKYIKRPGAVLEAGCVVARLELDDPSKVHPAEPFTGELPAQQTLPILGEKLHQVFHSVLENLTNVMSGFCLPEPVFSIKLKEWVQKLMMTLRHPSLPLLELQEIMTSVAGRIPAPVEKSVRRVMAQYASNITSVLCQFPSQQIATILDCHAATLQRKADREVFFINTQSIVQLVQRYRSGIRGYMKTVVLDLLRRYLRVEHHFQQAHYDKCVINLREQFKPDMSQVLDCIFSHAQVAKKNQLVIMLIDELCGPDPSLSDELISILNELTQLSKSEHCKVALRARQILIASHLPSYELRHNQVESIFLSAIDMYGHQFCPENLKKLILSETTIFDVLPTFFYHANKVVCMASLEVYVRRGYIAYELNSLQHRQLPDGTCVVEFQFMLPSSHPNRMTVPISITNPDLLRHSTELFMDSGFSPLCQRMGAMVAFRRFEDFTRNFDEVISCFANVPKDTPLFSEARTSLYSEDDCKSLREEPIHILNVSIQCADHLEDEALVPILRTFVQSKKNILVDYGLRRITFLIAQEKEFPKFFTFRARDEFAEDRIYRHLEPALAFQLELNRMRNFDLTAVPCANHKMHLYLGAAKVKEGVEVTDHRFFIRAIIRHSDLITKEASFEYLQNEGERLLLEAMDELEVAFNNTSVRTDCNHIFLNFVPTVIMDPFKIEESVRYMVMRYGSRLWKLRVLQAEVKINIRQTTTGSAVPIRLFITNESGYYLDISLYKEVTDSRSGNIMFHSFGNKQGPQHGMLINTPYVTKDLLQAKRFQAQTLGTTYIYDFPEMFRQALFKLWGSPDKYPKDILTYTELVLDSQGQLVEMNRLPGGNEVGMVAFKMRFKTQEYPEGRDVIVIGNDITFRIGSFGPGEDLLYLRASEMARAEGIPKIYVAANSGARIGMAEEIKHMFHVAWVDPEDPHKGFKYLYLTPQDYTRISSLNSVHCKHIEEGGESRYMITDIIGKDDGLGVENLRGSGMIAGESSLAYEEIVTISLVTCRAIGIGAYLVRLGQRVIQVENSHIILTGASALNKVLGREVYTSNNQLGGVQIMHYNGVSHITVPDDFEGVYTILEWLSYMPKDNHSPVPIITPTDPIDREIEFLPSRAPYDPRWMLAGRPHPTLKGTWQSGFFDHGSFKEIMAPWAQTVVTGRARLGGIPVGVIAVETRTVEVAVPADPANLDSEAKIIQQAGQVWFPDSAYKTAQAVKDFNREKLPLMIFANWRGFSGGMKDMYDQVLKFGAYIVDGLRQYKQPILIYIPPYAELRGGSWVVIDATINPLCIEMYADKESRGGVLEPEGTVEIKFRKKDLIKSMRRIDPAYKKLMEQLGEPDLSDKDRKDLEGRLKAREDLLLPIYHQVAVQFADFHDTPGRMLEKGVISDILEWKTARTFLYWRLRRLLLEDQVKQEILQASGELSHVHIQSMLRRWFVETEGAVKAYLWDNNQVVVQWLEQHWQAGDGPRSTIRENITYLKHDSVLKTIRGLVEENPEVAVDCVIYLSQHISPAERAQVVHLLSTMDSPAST
assay-overview: In vitro ACC inhibition assay (ADP-Glo), hACC2
Type: biochemical
measurement-conditions: Table 2b, additional results, 5 nM ACC2, 20 μM ATP, 20 μM acetyl-CoA
pIC50: −log10 of the molar value.
Consider the following molecules; for each one, report its pIC50.

Which measured pIC50 belongs to C=CCNC(=O)C(C)(C)n1c(=O)c2c(C)c(-n3nccn3)sc2n(C[C@H](OC2CCOCC2)c2cc(F)ccc2OC)c1=O [Compound I-70] , tested on UniProt:O00763? 8.30 to 9.00

Same read-out for COc1ccc(F)cc1[C@H](Cn1c(=O)n([C@@H](C)C(=O)N(C)C(C)C)c(=O)c2c(C)c(-n3nccn3)sc21)OCCO [Compound I-78] ? 7.40 to 8.00

Same read-out for COCCO[C@@H](Cn1c(=O)n([C@@H](C)C(=O)NC(C)C)c(=O)c2c(C)c(-n3nccn3)sc21)c1cc(F)ccc1OC [Compound I-66] ? 8.00 to 8.30

----------
Test system: Fusarium virguliforme (Fv)
assay-overview: Growth inhibition assay of fungal pathogens, Fv
Format: cell-based
measurement-conditions: 48 h, growth inhibition vs 2% DMSO control at 48 hours, read-out: Concentration at 90% Inhibition Fv
readout-kind: IC90 (µg/mL)
Write the number in µg/mL without appending the unit.

Which measured IC90 belongs to COc1ccc(F)cc1[C@H](Cn1c(=O)n([C@H](C)C(=O)NC2CCC2)c(=O)c2c(C)c(-n3nccn3)sc21)OCCO , tested on Fusarium virguliforme (Fv)? 0.4

Same read-out for COCCOc1ccc(F)cc1[C@H](Cn1c(=O)n(C(C)(C)C(=O)NC(C)C)c(=O)c2c(C)c(-n3nccn3)sc21)OC(C)C ? 0.4

Same read-out for COc1ccc(F)cc1[C@H](Cn1c(=O)n(C(C)(C)C(N)=O)c(=O)c2c(C)c(-n3nccn3)sc21)OC(C)C ? 0.4

----------
Test system: Botrtyis cinerea (Bc)
assay-overview: Growth inhibition assay of fungal pathogens, Bc
Type: cell-based
measurement-conditions: 48 h, Botrtyis cinerea; growth inhibition vs 2% DMSO control at 48 hours; read-out: Concentration at 90% Inhibition Bc
Consider the following molecules; for each one, report its IC90.
Write the number in µg/mL without appending the unit.

Looking for the measured IC90 of COc1ccc(F)cc1[C@H](Cn1c(=O)n(C(C)(C)C(=O)N2CCCC2)c(=O)c2c(C)c(-n3nccn3)sc21)OC(C)C , can you help? 0.4

Same read-out for COCCO[C@@H](Cn1c(=O)n(CC(=O)N2CCCC2)c(=O)c2c(C)c(-n3nccn3)sc21)c1cc(F)ccc1OC ? 2

Same read-out for COCCO[C@@H](Cn1c(=O)n([C@H](C)C(=O)NC(C)C)c(=O)c2c(C)c(-n3nccn3)sc21)c1cc(F)ccc1OC ? 0.08

Same read-out for COc1ccc(F)cc1[C@H](Cn1c(=O)n([C@H](C)C(=O)NC2CCC2)c(=O)c2c(C)c(-n3nccn3)sc21)OCCO ? 0.4

Same read-out for Cc1c(-n2nccn2)sc2c1c(=O)n(C(C)(C)C(=O)NC(C)C)c(=O)n2C[C@H](OC(C)C)c1cc(F)ccc1OCC1COC1 ? 0.4

Same read-out for CCNC(=O)C(C)(C)n1c(=O)c2c(C)c(-n3nccn3)sc2n(C[C@H](OC2CCOCC2)c2ccccc2OC)c1=O ? 0.4

Same read-out for COc1ccc(F)cc1[C@H](Cn1c(=O)n(C(C)(C)C(=O)N2CC=CC2)c(=O)c2c(C)c(-n3nccn3)sc21)OC1CCOCC1 ? 2

Same read-out for COc1ccc(F)cc1[C@H](Cn1c(=O)n(C(C)(C)C(=O)N2CC=CC2)c(=O)c2c(C)c(-n3nccn3)sc21)OC[C@@H](C)O ? 2

Same read-out for COCCO[C@@H](Cn1c(=O)n(C(C)C(=O)N2CCCC2)c(=O)c2c(C)c(-n3nccn3)sc21)c1cc(F)ccc1OC (stereo partly shown) ? 2

Same read-out for COc1ccc(F)cc1[C@H](Cn1c(=O)n(C(C)(C)C(=O)NC(C)C)c(=O)c2c(C)c(-n3nccn3)sc21)OCCC(N)=O ? 2

Same read-out for COCCOc1ccc(F)cc1[C@H](Cn1c(=O)n(C(C)(C)C(=O)NC(C)C)c(=O)c2c(C)c(-n3nccn3)sc21)OC(C)C ? 0.4

Same read-out for COc1ccc(F)cc1[C@H](Cn1c(=O)n([C@@H](C)C(=O)N(C)C(C)C)c(=O)c2c(C)c(-n3nccn3)sc21)OCCO ? 0.4
